target: NLRP3 inflammasome (Homo sapiens); construct: endogenous in cells; assay: THP-1 Cell-Based NLRP3 Activation Assay; settings: THP-1 cells, PMA, 100 ng/mL LPS 3 hrs, 30 min pre-incubation with test compound, 10 μM nigericin 1 hr
Sequence (Q96P20 whole entry): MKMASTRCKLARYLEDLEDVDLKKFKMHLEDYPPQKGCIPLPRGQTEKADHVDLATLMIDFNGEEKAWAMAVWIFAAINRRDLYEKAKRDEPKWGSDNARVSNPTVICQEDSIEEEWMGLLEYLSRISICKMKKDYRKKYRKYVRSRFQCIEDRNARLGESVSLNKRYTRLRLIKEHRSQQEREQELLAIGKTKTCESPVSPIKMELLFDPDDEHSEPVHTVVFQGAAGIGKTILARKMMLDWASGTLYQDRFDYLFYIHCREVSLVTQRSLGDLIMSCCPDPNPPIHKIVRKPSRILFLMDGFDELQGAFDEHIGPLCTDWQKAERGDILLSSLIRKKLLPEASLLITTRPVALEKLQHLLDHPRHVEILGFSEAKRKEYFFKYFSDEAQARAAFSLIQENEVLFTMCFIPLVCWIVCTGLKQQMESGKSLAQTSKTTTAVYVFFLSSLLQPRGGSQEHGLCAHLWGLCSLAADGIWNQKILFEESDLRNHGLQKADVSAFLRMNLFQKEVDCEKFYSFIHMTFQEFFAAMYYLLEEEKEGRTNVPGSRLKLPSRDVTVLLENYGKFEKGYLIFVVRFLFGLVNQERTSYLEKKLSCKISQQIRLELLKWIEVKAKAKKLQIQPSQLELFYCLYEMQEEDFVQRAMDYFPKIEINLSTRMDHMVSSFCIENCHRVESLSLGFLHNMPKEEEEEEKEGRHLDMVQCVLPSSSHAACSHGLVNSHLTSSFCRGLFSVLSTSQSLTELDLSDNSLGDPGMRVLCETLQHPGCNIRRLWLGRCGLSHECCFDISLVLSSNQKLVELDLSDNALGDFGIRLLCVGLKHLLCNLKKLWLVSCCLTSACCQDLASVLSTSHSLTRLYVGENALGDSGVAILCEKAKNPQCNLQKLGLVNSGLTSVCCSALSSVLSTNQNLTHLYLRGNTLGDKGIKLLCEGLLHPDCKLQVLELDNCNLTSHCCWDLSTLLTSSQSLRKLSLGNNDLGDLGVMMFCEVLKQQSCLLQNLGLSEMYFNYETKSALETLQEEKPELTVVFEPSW
Reported values of IC50 for individual entries
experimentalEndpoint: IC50

1. CCOc1cc(C(=O)N(C)Cc2c(F)c(O)cc3cn[nH]c23)ccc1-c1cccc(F)c1    < 1 µM
2. CN(Cc1cnc(CO)c2cn[nH]c12)C(=O)c1ccc(-c2cccc(F)c2)c(OC2CCC2)c1    < 1 µM
3. Cc1ncc(CN(C)C(=O)c2cc(F)c(-c3ccccc3)c(OC3CC3)c2)c2[nH]ncc12    < 1 µM
4. CCOc1cc(C(=O)N(C)Cc2cnc(CO)c3cn[nH]c23)cc(F)c1-c1ccsc1    < 1 µM
5. CCOc1cc(C(=O)N(C)Cc2cnc(C(C)O)c3cn[nH]c23)ccc1-c1cc(F)cc(F)c1 (stereo not shown)    < 1 µM
6. CN(Cc1cnc(CO)c2cn[nH]c12)C(=O)c1cc(Cl)c(-c2cccc(Cl)c2)c(OC2CC2)c1    < 1 µM
7. CCOc1cc(C(=O)N(C)[C@H](C)c2cnc(C)c3cn[nH]c23)ccc1-c1cccc(F)c1    < 1 µM
8. CN(Cc1cnc(CF)c2cn[nH]c12)C(=O)c1cc(F)c(-c2cccs2)c(OC2CC2)c1    < 1 µM
9. Cc1ncc([C@@H](C)N(C)C(=O)c2cc(F)c(-c3cccc(F)c3)c(OC3CC3)c2)c2[nH]ncc12    < 10 µM
10. CCOc1cc(C(=O)N(C)Cc2cnc(C(C)O)c3cn[nH]c23)cc(F)c1-c1cccc(F)c1 (stereo not shown)    < 1 µM
11. CCOc1cc(C(=O)N(C)Cc2cnc(CF)c3cn[nH]c23)ccc1C#CC1CC1    < 1 µM
12. CCOc1cc(C(=O)N(C)[C@H](C)c2c(O)ccc3cn[nH]c23)ccc1-c1cccc(F)c1 (single isomer, unassigned)    < 10 µM
13. CN(Cc1c(CO)ncc2cn[nH]c12)C(=O)c1cc(F)c(-c2cccc(F)c2)c(OC2CC2)c1    < 1 µM
14. CCOc1cc(C(=O)N(C)Cc2cnc(C(C)O)c3cn[nH]c23)cc(F)c1-c1cccc(C#N)c1 (stereo not shown)    < 10 µM
15. Cc1ncc2cn[nH]c2c1CN(C)C(=O)c1cc(F)c(-c2cccc(Cl)c2)c(OC2CC2)c1    < 1 µM
16. CCOc1cc(C(=O)N(C)Cc2cc(O)cc3cn[nH]c23)cc(F)c1-c1cccc(F)c1    < 1 µM
17. CCOc1cc(C(=O)N(C)Cc2cnc(C(C)O)c3cn[nH]c23)ccc1-c1ccccc1 (stereo not shown)    < 1 µM
18. CC(C)Oc1cc(C(=O)N(C)Cc2cnc(C(C)O)c3cn[nH]c23)ccc1-c1cc(F)cc(F)c1 (stereo not shown)    < 1 µM
19. CN(Cc1cnc(CO)c2cn[nH]c12)C(=O)c1ccc(-c2cccc(Cl)c2)c(OC2COC2)c1    < 1 µM
20. C[C@@H](c1cncc2cn[nH]c12)N(C)C(=O)c1ccc(-c2cccc(F)c2)c(OC2CC2)c1    < 1 µM
21. CCOc1cc(C(=O)N(C)Cc2cccc3[nH]ncc23)ccc1-c1cccc(F)c1    < 10 µM
22. CCOc1cc(C(=O)N(C)[C@H](C)c2ccc(CF)c3cn[nH]c23)ccc1-c1cccc(F)c1 (single isomer, unassigned)    < 10 µM
